Target: BTK C481S protein (Homo sapiens (Human), UniProt Q06187, C481S)
Sequence (Q06187 2-659 C481S): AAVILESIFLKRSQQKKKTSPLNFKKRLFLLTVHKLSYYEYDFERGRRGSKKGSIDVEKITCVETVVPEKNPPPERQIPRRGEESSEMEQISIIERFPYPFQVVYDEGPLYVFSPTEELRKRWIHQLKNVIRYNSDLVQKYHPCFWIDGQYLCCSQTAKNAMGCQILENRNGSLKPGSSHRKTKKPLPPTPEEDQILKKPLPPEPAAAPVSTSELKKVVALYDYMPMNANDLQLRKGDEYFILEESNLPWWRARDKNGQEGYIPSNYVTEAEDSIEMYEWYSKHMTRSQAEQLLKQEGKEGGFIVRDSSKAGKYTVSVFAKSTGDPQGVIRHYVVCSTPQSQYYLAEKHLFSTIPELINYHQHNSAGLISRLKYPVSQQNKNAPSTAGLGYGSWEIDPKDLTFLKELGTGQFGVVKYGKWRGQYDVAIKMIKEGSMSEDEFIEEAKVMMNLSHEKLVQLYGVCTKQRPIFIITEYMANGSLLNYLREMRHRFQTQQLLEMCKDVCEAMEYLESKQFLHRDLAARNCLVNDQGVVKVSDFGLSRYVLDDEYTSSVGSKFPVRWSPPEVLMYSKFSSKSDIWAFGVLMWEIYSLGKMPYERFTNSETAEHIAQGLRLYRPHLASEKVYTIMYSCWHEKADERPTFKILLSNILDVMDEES
Experiment: BTK C481S HTRF displacement assay
Conditions: 1-hour incubation
Method: The ability of a compound to bind BTK wildtype or BTK C481S proteins was measured using an HTRF displacement assay. […] Test compounds were prepared as 10 mM stock solutions in DMSO (Fisher cat #BP231-100). […] After a 1-hour incubation at room temperature, the HTRF signal was measured using SPARK plate reader (Tecan) using the TR fluorescence mode. The HTRF ratio is calculated for DMSO, no protein control and compound samples using the following equation: HTRF ratio=Emmision665/Emmision620×10^4. […]
endpoint.label: IC50

Worked examples, 3 compounds total:
Exercise: IC50 of COC[C@H](C1CCNc2c(C(N)=O)c(-c3ccc(Oc4ccccc4)cc3)nn21)N(C)C(=O)n1cncn1 (some centres unmarked) on BTK C481S protein (Homo sapiens (Human), UniProt Q06187, C481S)?
Key: > 1000 nM

Exercise: Query the reported IC50 for BTK C481S protein (Homo sapiens (Human), UniProt Q06187, C481S); item: CN(C(=O)n1cncn1)C1CC(C2CCNc3c(C(N)=O)c(-c4ccc(Oc5ccccc5)cc4)nn32)C1 (centres unmarked)
Key: ≤ 1000 nM

Exercise: Give recorded IC50 with BTK C481S protein (Homo sapiens (Human), UniProt Q06187, C481S) for the following compound: CN(C(=O)n1cncn1)C1CCCN(c2ncnc3[nH]ccc23)C1 (centres unmarked)
Key: > 1000 nM

Read the next record carefully.
Exercise: Provide value of IC50 for this record tested with BTK C481S protein (Homo sapiens (Human), UniProt Q06187, C481S): CN(C(=O)n1cncn1)[C@H]1CCCC[C@H](n2nc(-c3ccc(Oc4ccccc4)cc3)c(C(N)=O)c2N)C1
Key: ≤ 1000 nM

---

Notes on IC50 obtained with BTK wildtype protein (Homo sapiens (Human), UniProt Q06187).
Sequence (Q06187 2-659): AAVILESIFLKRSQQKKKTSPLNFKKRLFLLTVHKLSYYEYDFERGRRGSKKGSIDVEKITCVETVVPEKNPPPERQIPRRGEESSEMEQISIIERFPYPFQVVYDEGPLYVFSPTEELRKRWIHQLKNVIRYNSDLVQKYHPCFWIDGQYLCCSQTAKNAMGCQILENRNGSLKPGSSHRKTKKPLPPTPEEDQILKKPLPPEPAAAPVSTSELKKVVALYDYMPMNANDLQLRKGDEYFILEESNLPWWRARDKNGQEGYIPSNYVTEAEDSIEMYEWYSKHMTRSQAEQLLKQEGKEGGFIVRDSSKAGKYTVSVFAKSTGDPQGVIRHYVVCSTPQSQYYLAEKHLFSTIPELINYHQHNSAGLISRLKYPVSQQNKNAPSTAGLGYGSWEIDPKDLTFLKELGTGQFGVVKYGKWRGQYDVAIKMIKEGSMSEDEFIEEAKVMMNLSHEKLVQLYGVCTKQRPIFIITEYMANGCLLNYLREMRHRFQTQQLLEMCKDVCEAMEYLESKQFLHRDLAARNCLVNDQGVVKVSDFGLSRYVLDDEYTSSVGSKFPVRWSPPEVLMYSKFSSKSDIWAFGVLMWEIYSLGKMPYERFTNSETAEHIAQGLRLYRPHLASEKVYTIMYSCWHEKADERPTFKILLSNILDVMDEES

Exercise: Hello, I am looking for reported IC50 with BTK wildtype protein (Homo sapiens (Human), UniProt Q06187) for COc1ccc(F)cc1C(=O)NCc1ccc(-c2nn(CC3CC(O)CCN3C(=O)n3cncn3)c3ncnc(N)c23)cc1 (stereo not shown) . Could you help?
Key: > 1000 nM

Exercise: BTK wildtype protein (Homo sapiens (Human), UniProt Q06187) / IC50 / NC(=O)c1c(-c2ccc(Oc3ccccc3)cc2)nn2c1NCCC2CN(C(=O)n1cncn1)C1CC1 (stereo not shown) : value?
Key: > 1000 nM

Exercise: Please provide the recorded IC50 for COc1nn(C)cc1Nc1nc(N2CCCC(N(C)C(=O)n3cncn3)C2)nc2c1ncn2C (stereo not shown) , tested on BTK wildtype protein (Homo sapiens (Human), UniProt Q06187).
Key: > 1000 nM

Next:
Exercise: Which IC50 is reported with BTK wildtype protein (Homo sapiens (Human), UniProt Q06187) for this entry: COc1ccc(F)cc1C(=O)NCc1ccc(-c2nn(C[C@@H]3CCCN3C(=O)n3cncn3)c3ncnc(N)c23)cc1 ?
Key: ≤ 1000 nM

Exercise: Form field: IC50 recorded for NC(=O)c1c(-c2ccc(Oc3ccccc3)cc2)nn2c1NCCC2[C@@H]1CCCN1C(=O)n1cncn1 (stereo partly shown) with BTK wildtype protein (Homo sapiens (Human), UniProt Q06187) (enter value)
Key: > 1000 nM

Exercise: For BTK wildtype protein (Homo sapiens (Human), UniProt Q06187), provide IC50 of CN(C(=O)n1cncn1)C1CCC2C(CNc3c(C(N)=O)c(-c4ccc(Oc5ccccc5)cc4)nn32)C1 (stereo not shown) [Compound 272] please.
Key: ≤ 1000 nM

Exercise: Kindly state the measured IC50 obtained for COc1ccc(F)cc1C(=O)NCc1ccc(-c2nn(C(C)CN(C(=O)n3cncn3)C3CC3)c3ncnc(N)c23)cc1 (stereo not shown) with BTK wildtype protein (Homo sapiens (Human), UniProt Q06187).
Key: > 1000 nM

---

Catalogue of pIC50 values
target: BTK C481S protein (Homo sapiens (Human), UniProt Q06187, C481S); assay: BTK C481S HTRF displacement assay; conditions: 1-hour incubation
pIC50: −log10 of the molar value.

Use the examples below as a reference point.
Exercise: Give the measured pIC50 of COc1ccc(F)cc1C(=O)NCc1ccc(-c2nn(C[C@@H]3C[C@@H](O)CN3C(=O)n3cncn3)c3ncnc(N)c23)cc1 [Compound 224] .
Key: < 6.00

Exercise: Data request, read-out pIC50, for NC(=O)c1c(-c2ccc(Oc3ccccc3)cc2)nn2c1NCCC2[C@@H]1CCCN1C(=O)n1cncn1 (stereo partly shown) [Compound 280]
Key: ≥ 6.00

Exercise: For COc1ccc(F)cc1C(=O)NCc1ccc(-c2nn(-c3cc(N(C)C(=O)n4cncn4)ccc3C)c3ncnc(N)c23)cc1 [Compound 276] , what is its reported pIC50?
Key: < 6.00

Exercise: Any idea what its pIC50 is? The compound is COc1ccc(F)cc1C(=O)NCc1ccc(-c2nn(C3CCC3N(C)C(=O)n3cncn3)c3ncnc(N)c23)cc1 (stereo not shown) [Compound 181]
Key: ≥ 6.00

Exercise: Could you tell me which pIC50 is on file for COc1ccc(F)cc1C(=O)NCc1ccc(-c2nn(C[C@H]3CCC[C@H]3CN(C)C(=O)n3cncn3)c3ncnc(N)c23)cc1 [Compound 307] ?
Key: ≥ 6.00

Others:
Exercise: Please report the recorded pIC50 for COc1ccc(F)cc1C(=O)NCc1ccc(-c2nn(Cc3ccccc3N(C)C(=O)n3cncn3)c3ncnc(N)c23)cc1 [Compound 141] .
Key: < 6.00

Exercise: Dear colleague, I am looking for the recorded pIC50 of the following compound: COc1ccc(F)cc1C(=O)NCc1ccc(-c2nn(CC3CCCCC3N(C)C(=O)n3cncn3)c3ncnc(N)c23)cc1 (stereo not shown) [Compound 126]
Key: ≥ 6.00

---

target: BTK C481S protein (Homo sapiens (Human), UniProt Q06187, C481S); test: BTK C481S HTRF displacement assay; details: 1-hour incubation
endpoint.label: IC50

Exercise: // query IC50 value for entry CN(C(=O)n1cncn1)c1ccccc1C1CCNc2c(C(N)=O)c(-c3ccc(Oc4ccccc4)cc3)nn21 (stereo not shown)
Key: > 1000 nM

Exercise: Find the recorded IC50 belonging to COc1ccc(F)cc1C(=O)NCc1ccc(-c2nn(C(Cc3ccncc3)CN(C)C(=O)n3cncn3)c3ncnc(N)c23)cc1 (stereo not shown) and report it.
Key: > 1000 nM

Exercise: Bench note: what IC50 did CN(C(=O)n1cncn1)C1CCC2C(CNc3c(C(N)=O)c(-c4ccc(Oc5ccccc5)cc4)nn32)C1 (stereo not shown) [Compound 199] show?
Key: ≤ 1000 nM

Exercise: What value of measured IC50 is listed for COc1ccc(F)cc1C(=O)NCc1ccc(-c2nn(CC3COCCN3C(=O)n3cncn3)c3ncnc(N)c23)cc1 (stereo not shown) ?
Key: > 1000 nM

Exercise: State the recorded IC50 for this entry: COc1ccc(F)cc1C(=O)NCc1ccc(-c2nn(CC(N(C)C(=O)n3cncn3)C(F)(F)F)c(N)c2C(N)=O)cc1 (stereo not shown)
Key: ≤ 1000 nM

---
Exercise: Quick check: IC50 of Cc1[nH]c2c(C(N)=O)cc(F)c(N3CCCC(N(C)C(=O)n4cncn4)C3)c2c1C (stereo not shown) ?
Key: ≤ 1000 nM

Exercise: Value lookup for IC50; key = NC(=O)c1c(-c2ccc(Oc3ccccc3)cc2)nn2c1NCCC2[C@H]1CCCN1C(=O)n1cncn1 (stereo partly shown)
Key: ≤ 1000 nM

---

biological target: BTK C481S protein (Homo sapiens (Human), UniProt Q06187, C481S); test: BTK C481S HTRF displacement assay; details: 1-hour incubation
pIC50: −log10 of the molar value.
Reported pIC50 is given for each of the following compounds.

Exercise: Dear colleague, I am looking for the recorded pIC50 of the following compound: CC[C@@H](Cn1nc(-c2ccc(CNC(=O)c3cc(F)ccc3OC)cc2)c2c(N)ncnc21)N(C)C(=O)n1cncn1 [Compound 204]
Key: ≥ 6.00

Exercise: Which pIC50 reading was recorded for the compound NC(=O)c1c(-c2ccc(Oc3ccccc3)cc2)nn2c1NCC[C@H]2[C@@H]1CCCCN1C(=O)n1cncn1 [Compound 223] ?
Key: < 6.00

Exercise: Record request: pIC50 value, item COc1ccc(F)cc1C(=O)NCc1ccc(-c2nn(CC3CCCC3N(C)C(=O)n3cncn3)c3ncnc(N)c23)cc1 (stereo not shown) [Compound 211]
Key: ≥ 6.00

Exercise: Requested read-out: pIC50. Entry: COc1ccc(F)cc1C(=O)NCc1ccc(-c2nn(CC3C(C)CCCN3C(=O)n3cncn3)c3ncnc(N)c23)cc1 (stereo not shown) [Compound 271]
Key: < 6.00

Exercise: Fill in the blank: the reported pIC50 of CN(C(=O)n1cncn1)C1CCC(n2nc(-c3ccc(Oc4ccccc4)cc3)c(C(N)=O)c2N)C1 (stereo not shown) [Compound 302] is ____.
Key: ≥ 6.00

---
Exercise: Sample NC(=O)c1nn2c(c1-c1ccc(Oc3ccccc3)cc1)NCCC2C1CCCCN1C(=O)n1cncn1 (stereo not shown) [Compound 203] — what was its pIC50?
Key: < 6.00

Exercise: Given CN(C(=O)n1cncn1)C1CCC(n2nc(-c3ccc(Oc4ccccc4)cc3)c3c(N)ncnc32)CC1 (stereo not shown) [Compound 133] , state its recorded pIC50.
Key: ≥ 6.00
